GI50 values, listed per item
- EXPERIMENTAL_PROTOCOL: Anticancer activity against human SMOV2 cells after 3 days incubation by SRB proliferation assay
- Type: functional
- CONDITIONS: SMOV2, 72 h
State the answer as a number, implicitly in µM.

{"SMILES_DATA": "Cc1cc(F)ccc1-c1nc(-c2ccc3c(c2)CC(=O)N3)cs1", "GI50 / µM": 0.002}
{"SMILES_DATA": "COCCOCc1cc(F)ccc1-c1nc(-c2ccc3[nH]c(=O)oc3c2)cs1", "GI50 / µM": 0.002}

# context switch: different molecule, same GI50
Notebook: "COc1cc(F)ccc1-c1nc(-c2ccc3[nH]c(=O)oc3c2)cs1" , GI50 read as 5.7

* * *

- EXPERIMENTAL_PROTOCOL: Anticancer activity against human SMOV2 cells after 3 days incubation by SRB proliferation assay
- Type: functional
- CONDITIONS: SMOV2, 72 h
GI50 listing for selected compounds.

Example entries and their recorded answers appear below.
{"SMILES_DATA": "Cc1cc(F)ccc1-c1nc(-c2ccc3[nH]c(=O)n(CCN(C)C)c3c2)cs1", "GI50": "3 nM"}
{"SMILES_DATA": "Cc1cc(F)ccc1-c1nc(-c2ccc3c(c2)[nH]c(=O)n3CCN(C)C)cs1", "GI50": "> 50000 nM"}
{"SMILES_DATA": "O=c1[nH]c2ccc(-c3csc(-c4ccc(F)cc4COCCN4CCCC4)n3)cc2o1", "GI50": "13 nM"}
{"SMILES_DATA": "Cc1cc(F)ccc1-c1nc(-c2ccc3[nH]c(=O)oc3c2)cs1", "GI50": "2 nM"}
{"SMILES_DATA": "CCc1cc(F)ccc1-c1nc(-c2ccc3[nH]c(=O)oc3c2)cs1", "GI50": "13 nM"}

# GI50 (compound: "O=c1[nH]c2ccc(-c3csc(-c4ccc(F)cc4CN4CCOCC4)n3)cc2o1" ) is 520 nM

So, "Cc1cc(F)ccc1-c1nc(-c2ccc3[nH]c(=O)[nH]c3c2)cs1" ? Its GI50 was 1 nM

* * *

- TEST_SYSTEM: Protein phosphatase 1D (Homo sapiens, UniProt O15297)
- Sequence (O15297 whole entry): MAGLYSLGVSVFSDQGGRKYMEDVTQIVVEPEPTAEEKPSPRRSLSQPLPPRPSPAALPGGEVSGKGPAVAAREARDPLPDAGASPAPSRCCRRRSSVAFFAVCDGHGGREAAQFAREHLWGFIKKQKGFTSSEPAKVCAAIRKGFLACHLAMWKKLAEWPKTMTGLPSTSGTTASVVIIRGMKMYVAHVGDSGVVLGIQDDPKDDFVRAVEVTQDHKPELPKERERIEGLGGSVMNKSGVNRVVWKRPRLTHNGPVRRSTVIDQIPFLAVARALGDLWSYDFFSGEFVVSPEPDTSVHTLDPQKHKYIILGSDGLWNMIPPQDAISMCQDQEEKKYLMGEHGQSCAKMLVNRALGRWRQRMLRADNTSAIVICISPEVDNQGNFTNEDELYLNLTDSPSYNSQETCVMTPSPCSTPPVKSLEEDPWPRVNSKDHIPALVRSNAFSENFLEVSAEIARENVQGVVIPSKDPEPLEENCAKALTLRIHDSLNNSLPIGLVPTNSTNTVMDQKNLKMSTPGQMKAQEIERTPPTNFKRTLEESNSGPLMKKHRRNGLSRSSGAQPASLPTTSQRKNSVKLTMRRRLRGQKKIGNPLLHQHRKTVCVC
pIC50: −log10 of the molar value.
VALUE_TYPE: pIC50

Please review the following examples before continuing.
{"SMILES_DATA": "Cc1cc(F)ccc1-c1nc(-c2ccc3c(c2)CC(=O)N3)cs1", "TEST_SYSTEM": "Protein phosphatase 1D (Homo sapiens, UniProt O15297)", "pIC50": "> 4.70"}
{"SMILES_DATA": "O=c1[nH]c2ccc(-c3csc(-c4ccc(Cl)cc4)n3)cc2o1", "TEST_SYSTEM": "Protein phosphatase 1D (Homo sapiens, UniProt O15297)", "pIC50": "> 4.70"}

Measured pIC50, "COc1cc(F)ccc1-c1nc(-c2ccc3[nH]c(=O)oc3c2)cs1" : > 4.70

Kindly note the recorded pIC50 for "COCCOCc1cc(F)ccc1-c1nc(-c2ccc3[nH]c(=O)[nH]c3c2)cs1" , which is > 4.70

Notebook: "Cc1cc(-c2nc(-c3ccc4[nH]c(=O)oc4c3)cs2)ccc1F" , pIC50 read as > 4.70

According to the records, this molecule "O=c1[nH]c2ccc(-c3csc(-c4ccc(F)cc4)n3)cc2o1" displays pIC50 of 4.64

* * *

- EXPERIMENTAL_PROTOCOL: Anticancer activity against human SMOV2 cells after 3 days incubation by SRB proliferation assay
- Assay type: functional
- CONDITIONS: SMOV2, 72 h
Kindly apply the following: MET if GI50 is less than 200 nM, NOT MET in every other case.

Observe how each entry below is paired with its result.
{"SMILES_DATA": "O=c1[nH]c2ccc(-c3csc(-c4ccc(F)c(C(F)(F)F)c4)n3)cc2o1", "GROUP_LABEL": "NOT MET"}
{"SMILES_DATA": "CN(C)Cc1cc(F)ccc1-c1nc(-c2ccc3[nH]c(=O)oc3c2)cs1", "GROUP_LABEL": "MET"}
{"SMILES_DATA": "NCCOCc1cc(F)ccc1-c1nc(-c2ccc3[nH]c(=O)oc3c2)cs1", "GROUP_LABEL": "MET"}
{"SMILES_DATA": "Cc1cc(-c2nc(-c3ccc4[nH]c(=O)oc4c3)cs2)ccc1F", "GROUP_LABEL": "NOT MET"}

Ask | Lab note: confirm whether the reported GI50 for this molecule is below 200 nM, equality not counting. molecule: "O=c1[nH]c2ccc(-c3csc(-c4ccc(F)c(O)c4)n3)cc2o1"
Reply | NOT MET

Ask | # strict comparison: is reported GI50 < 200 nM? input = "COCCOCc1cc(F)ccc1-c1nc(-c2ccc3[nH]c(=O)[nH]c3c2)cs1"
Reply | MET

Ask | Quick check: does "O=c1[nH]c2ccc(-c3csc(-c4ccc(F)c(F)c4)n3)cc2o1" have GI50 under 200 nM?
Reply | NOT MET

* * *

- EXPERIMENTAL_PROTOCOL: Anticancer activity against human SMOV2 cells after 3 days incubation by SRB proliferation assay
- Assay type: functional
- CONDITIONS: SMOV2, 72 h
Each item that follows carries a reported GI50.
Write the value in nM as a bare number.

# count of solved cases: 2
{"SMILES_DATA": "CN(C)CCc1cc(F)ccc1-c1nc(-c2ccc3[nH]c(=O)oc3c2)cs1", "GI50 / nM": 40}
{"SMILES_DATA": "O=c1[nH]c2ccc(-c3csc(-c4ccc(F)cc4CO)n3)cc2o1", "GI50 / nM": 23}

Would you kindly look at the next entry?
Entry "O=c1[nH]c2ccc(-c3csc(-c4ccc(F)cc4)n3)cc2o1" — recorded GI50 = 130
